# measured_target: human PAR-2 (hPAR-2) receptor (Homo sapiens, UniProt P55085)
# Construct: endogenous in cells
# Sequence (P55085 26-397): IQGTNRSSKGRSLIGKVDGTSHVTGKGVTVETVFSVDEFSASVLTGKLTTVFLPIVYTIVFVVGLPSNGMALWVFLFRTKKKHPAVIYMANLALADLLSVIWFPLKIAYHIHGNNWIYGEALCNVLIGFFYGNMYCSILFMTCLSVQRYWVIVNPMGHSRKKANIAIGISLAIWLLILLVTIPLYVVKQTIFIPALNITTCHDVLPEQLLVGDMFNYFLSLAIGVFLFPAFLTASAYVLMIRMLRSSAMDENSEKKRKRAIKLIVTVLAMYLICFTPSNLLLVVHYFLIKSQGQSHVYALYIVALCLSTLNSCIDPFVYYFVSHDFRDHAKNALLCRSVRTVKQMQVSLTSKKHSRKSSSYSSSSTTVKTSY
# protocol_notes: In vitro human PAR-2 functional antagonist activity using calcium assays
# settings: hPAR-2 endogenously expressed in HEK-293 cells; stimulated by 2-Furoyl-LIGRLO-NH2 peptide; Fluo4AM intracellular calcium, FLIPR Tetra
pIC50: −log10 of the molar value.
Items are presented alongside their recorded pIC50.

Solved cases below.
CC1(C)CN(c2ccc(Cl)c(F)c2)c2ccc(C(=O)N3CCN(c4cnccc4C(=O)O)CC3(C)C)nc21 [Example 107] = 5.00 to 6.30
CC(C)(CO)NC(=O)c1ccc2c(n1)C(C)(C)CN2c1ccc(Cl)c(F)c1 [Example 51] = 5.00 to 6.30
Cc1cc(N2CCN(C(=O)c3ccc4c(n3)C3(CCCC3)CN4c3ccc(Cl)c(F)c3)C(C)(C)C2)nc(C)c1C(=O)O [Example 8] = > 6.30

We next turn to a different compound, shown below.
Problem: Requested read-out: pIC50. Entry: Cc1ccc(N2CC(C)(C)c3nc(C(=O)N4CCN(c5ccc(CC(=O)O)cn5)CC4(C)C)cnc32)cc1F [Example 203]
Result: > 6.30

----------
# measured_target: human PAR-2 (hPAR-2) receptor (Homo sapiens, UniProt P55085)
# Construct: endogenous in cells
# Sequence (P55085 26-397): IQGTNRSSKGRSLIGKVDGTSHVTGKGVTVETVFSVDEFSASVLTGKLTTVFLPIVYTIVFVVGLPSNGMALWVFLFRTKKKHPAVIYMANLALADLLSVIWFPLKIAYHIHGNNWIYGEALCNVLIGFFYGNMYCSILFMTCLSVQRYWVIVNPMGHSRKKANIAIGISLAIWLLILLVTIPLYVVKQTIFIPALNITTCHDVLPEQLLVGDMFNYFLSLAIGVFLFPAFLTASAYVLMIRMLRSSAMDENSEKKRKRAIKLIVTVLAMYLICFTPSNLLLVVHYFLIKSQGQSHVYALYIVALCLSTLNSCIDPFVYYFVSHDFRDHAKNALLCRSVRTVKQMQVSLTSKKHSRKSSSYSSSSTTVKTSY
# protocol_notes: In vitro human PAR-2 functional antagonist activity using calcium assays
# settings: hPAR-2 endogenously expressed in HEK-293 cells; stimulated by 2-Furoyl-LIGRLO-NH2 peptide; Fluo4AM intracellular calcium, FLIPR Tetra
pIC50: −log10 of the molar value.
We begin with a simple list: items and their reported pIC50.

Past entries and their recorded results:
Cc1cc(N2CCN(C(=O)c3ccc4c(n3)C(C)(C)CN4c3ccc(C4CC4)cc3)C(C)(C)C2)nc(C)c1C(=O)O = > 6.30
Cc1cc(N(C)CCN(C)C(=O)c2ccc3c(n2)C(C)(C)CN3c2ccc(Cl)c(F)c2)nc(C)c1C(=O)O = 5.00 to 6.30
CC1(C)CN(c2ccc(Cl)c(F)c2)c2ccc(C(=O)N3CC4(C3)CN(c3ccc(C(=O)O)cn3)C4)nc21 = < 5.00
Cc1cc(N2CCN(C(=O)c3cnc4c(n3)C(C)(C)CN4c3cc(F)c(Cl)c(F)c3)C(C)(C)C2)nc(C)c1C(=O)O = > 6.30

Problem: What does the data say about its pIC50? Entry: CC1(C)CC2(CN(c3ccc(Cl)c(F)c3)c3ncc(C(=O)N4CCN(C(=O)CCCCCCC(=O)O)CC4(C)C)nc32)C1
Result: > 6.30

Problem: Param item = COC1CC2(C1)CN(c1ccc(Cl)c(F)c1)c1ccc(C(=O)N3CCN(c4cc(C)c(C(=O)O)c(C)n4)CC3(C)C)nc12 (single isomer, unassigned) ; retrieve measured pIC50.
Result: > 6.30

Problem: Given CC1(C)CN(c2ccc(F)c(F)c2)c2ncc(C(=O)N3CCN(c4ccc(CC(=O)O)cn4)CC3(C)C)nc21 , state its recorded pIC50.
Result: > 6.30

Problem: Fill in: pIC50 of CO[C@H]1CN(C(=O)c2ccc3c(n2)C(C)(C)CN3c2ccc(Cl)c(F)c2)CC[C@@H]1CC(=O)O is ___
Result: 5.00 to 6.30

Problem: Please look up its pIC50: CC1(C)CN(c2ccc(Cl)c(F)c2)c2ccc(C(=O)N3CCNC(=O)C3(C)C)nc21
Result: > 6.30
